Biological target: human DGKα (Homo sapiens)
Construct: TVMV protease cleavage site (C); Hexa-His (C)
Sequence (P23743 with tags, fused parts or gaps): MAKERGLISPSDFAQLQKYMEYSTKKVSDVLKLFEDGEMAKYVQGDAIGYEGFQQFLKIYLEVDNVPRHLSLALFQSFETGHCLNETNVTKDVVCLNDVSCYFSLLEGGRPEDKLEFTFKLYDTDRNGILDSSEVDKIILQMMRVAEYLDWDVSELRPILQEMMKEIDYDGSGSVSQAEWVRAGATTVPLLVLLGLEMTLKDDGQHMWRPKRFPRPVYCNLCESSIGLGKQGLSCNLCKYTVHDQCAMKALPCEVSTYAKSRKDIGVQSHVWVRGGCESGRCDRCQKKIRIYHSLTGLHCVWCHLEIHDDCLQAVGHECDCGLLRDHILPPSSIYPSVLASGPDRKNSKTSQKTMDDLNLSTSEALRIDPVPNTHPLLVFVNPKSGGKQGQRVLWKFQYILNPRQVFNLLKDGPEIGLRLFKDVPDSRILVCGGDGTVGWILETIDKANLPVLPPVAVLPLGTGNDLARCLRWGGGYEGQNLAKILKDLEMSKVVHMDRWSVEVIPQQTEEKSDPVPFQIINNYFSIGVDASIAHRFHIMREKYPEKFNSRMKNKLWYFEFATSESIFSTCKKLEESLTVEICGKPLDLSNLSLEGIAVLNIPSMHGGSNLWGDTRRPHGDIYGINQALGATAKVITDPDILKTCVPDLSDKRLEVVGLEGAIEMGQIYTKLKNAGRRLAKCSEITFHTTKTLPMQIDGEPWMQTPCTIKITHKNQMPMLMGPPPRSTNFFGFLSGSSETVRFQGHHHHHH
Experiment: In vitro DGK inhibition assay, DGKα liposome (LIPGLO) assay
Details: read-out: Enzyme Inhibition DGKalpha IC50
pIC50: −log10 of the molar value.

| Record Smiles | Inequality Operator | pIC50 |
| --- | --- | --- |
| Cn1c(=O)cc(N(CC2CC2)c2cccc(-c3cccc(C(N)=O)c3)c2)c2nc(C#N)ccc21 | = | 4.39 |
| CN(c1ccc(F)c(F)c1)c1cc(=O)n(C)c2ccc(C#N)nc12 | = | 6.36 |
| CN(c1cccc(-c2ccc(OC(F)(F)F)cc2)c1)c1nc(=O)n(C)c2ccc(C#N)nc12 | = | 5.74 |
| Cc1ccccc1-c1cccc(N(CC2CC2)c2cc(=O)n(C)c3ccc(C#N)nc23)c1 | = | 5.38 |
| Cn1c(=O)cc(N(CC2CC2)c2ccc(C3CC3)c(-c3ccc(C(N)=O)cc3)c2)c2nc(C#N)ccc21 | < | 4.42 |
| Cn1c(=O)c(C#N)c(N(CC2CC2)c2ccc(C3CC3)cc2)c2ncccc21 | < | 4.43 |
| Cc1ccc2c(n1)c(N(C)C1CCCCC1)c(C#N)c(=O)n2C | = | 6.54 |
| Cn1c(=O)cc(N(CC2CC2)c2cccc(-c3cccc(CNS(C)(=O)=O)c3)c2)c2nc(C#N)ccc21 | = | 4.48 |
